Where do these numbers come from? They come from paper PMC10059756.

- systemName: AChE (EC 3.1.1.7, Electrophorus electricus) (Electrophorus electricus)
- Sequence (O42275 24-633): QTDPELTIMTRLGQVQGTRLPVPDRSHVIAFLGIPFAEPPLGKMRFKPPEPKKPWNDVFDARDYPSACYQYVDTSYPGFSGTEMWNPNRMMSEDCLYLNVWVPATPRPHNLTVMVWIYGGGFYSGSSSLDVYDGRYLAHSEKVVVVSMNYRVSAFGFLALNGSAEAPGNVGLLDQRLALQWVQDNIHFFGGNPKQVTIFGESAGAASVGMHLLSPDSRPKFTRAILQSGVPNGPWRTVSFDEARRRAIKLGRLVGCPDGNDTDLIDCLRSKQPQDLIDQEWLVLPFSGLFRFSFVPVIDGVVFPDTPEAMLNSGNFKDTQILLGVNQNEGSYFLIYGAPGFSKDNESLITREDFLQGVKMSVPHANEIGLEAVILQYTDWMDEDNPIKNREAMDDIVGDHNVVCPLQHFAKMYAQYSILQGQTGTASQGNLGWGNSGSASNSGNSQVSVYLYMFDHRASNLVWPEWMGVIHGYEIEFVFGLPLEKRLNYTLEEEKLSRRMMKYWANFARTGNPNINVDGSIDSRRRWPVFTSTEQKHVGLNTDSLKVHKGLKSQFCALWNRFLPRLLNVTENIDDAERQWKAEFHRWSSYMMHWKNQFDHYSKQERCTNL
- experimentalProtocol: biochemical
- Type: biochemical
- testParameters: Ellman's method, 5 min pre-incubation at 4 °C, triplicate
assayMetric: IC50
State the value with its unit after it.

Illustrative cases are given below, each with its answer.
Respond only with IC50 recorded for `Fc1ccc(Cn2nnc3ccc4sccc4c32)cc1` 97 µM

Respond only with IC50 recorded for `c1csc(Cn2nnc3ccc4sccc4c32)c1` 119 µM

Respond only with IC50 recorded for `FC(F)(F)Oc1ccc(Cn2nnc3c2-c2ccsc2CC3)cc1` 88.7 µM

Respond only with IC50 recorded for `FC(F)(F)c1ccc(Cn2nnc3ccc4sccc4c32)cc1` 140 µM

Would you mind listing IC50 for each of the following molecules?
1. FC(F)(F)c1ccc(Cn2nnc3c2-c2ccsc2CC3)cc1
2. FC(F)(F)Oc1ccc(Cn2nnc3ccc4sccc4c32)cc1
3. CC(C)n1nnc2ccc3ccc(Cl)cc3c21
4. c1cc2c(s1)CCc1nnn(CCN3CCOCC3)c1-2
5. COc1ccc(Cn2nnc3ccc4sccc4c32)cc1

1. 118 µM
2. 68 µM
3. 59.9 µM
4. 45.6 µM
5. 116 µM
